# MEASURED_ON: IKKε (Homo sapiens)
# Sequence (Q14164 whole entry): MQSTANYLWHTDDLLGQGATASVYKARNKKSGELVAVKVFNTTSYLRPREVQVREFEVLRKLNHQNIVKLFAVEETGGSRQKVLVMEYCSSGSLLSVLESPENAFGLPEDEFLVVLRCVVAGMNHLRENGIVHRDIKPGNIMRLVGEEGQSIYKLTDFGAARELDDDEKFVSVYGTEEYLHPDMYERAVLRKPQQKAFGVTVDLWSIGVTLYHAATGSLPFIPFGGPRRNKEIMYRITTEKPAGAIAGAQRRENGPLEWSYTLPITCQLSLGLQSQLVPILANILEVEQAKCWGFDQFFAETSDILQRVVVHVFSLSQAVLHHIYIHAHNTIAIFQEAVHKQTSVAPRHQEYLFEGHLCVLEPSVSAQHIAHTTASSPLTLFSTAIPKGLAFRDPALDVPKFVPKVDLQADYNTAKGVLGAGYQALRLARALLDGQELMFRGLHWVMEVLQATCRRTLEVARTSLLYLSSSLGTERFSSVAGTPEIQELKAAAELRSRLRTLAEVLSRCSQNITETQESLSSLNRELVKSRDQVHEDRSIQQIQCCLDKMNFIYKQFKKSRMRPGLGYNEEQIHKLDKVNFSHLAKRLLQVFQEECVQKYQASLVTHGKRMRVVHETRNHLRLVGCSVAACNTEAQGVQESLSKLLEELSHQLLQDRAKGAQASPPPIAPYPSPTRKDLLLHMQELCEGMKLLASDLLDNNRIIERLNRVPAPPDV
# Format: biochemical
pIC50: −log10 of the molar value.

{"columns": ["SMILES_STRING", "MEASURED_ON", "pIC50"],
 "data": [
  ["N#CCNC(=O)c1ccc(-c2ccnc(Nc3ccc(N4CCOCC4)cc3)n2)cc1", "IKKε (Homo sapiens)", 7.38]
]}

Data provenance is paper PMC3980023.
